I'd appreciate it if you could supply bioluminescence values for the items below.
# Test system: LEGO organoid PT (PTEN-/-; TP53-/-)
# assay details: bioluminescence (viable cell) signal fold change after vs before treatment, normalised to DMSO (ratio); higher = more tumour cell growth / less inhibition
# recorded conditions: 10 µM; treatment time 6 days
Respond numerically, and do not add a unit to the figure.

bioluminescence measured on N[C@@H](CC(=O)O)C(=O)O [L-Aspartic acid] = 0.844

bioluminescence measured on Cl.OC(CCN1CCCC1)(c1ccccc1)C1CCCCC1 (stereo not given) [Procyclidine hydrochloride] = 1.48

bioluminescence measured on O=C1Nc2ccc(Cl)cc2[C@@](C#CC2CC2)(C(F)(F)F)O1 [Efavirenz] = 0.965

bioluminescence measured on CC[C@@]1(O)C(=O)OCc2c1cc1n(c2=O)Cc2cc3c(CN(C)C)c(O)ccc3nc2-1.Cl [Topotecan hydrochloride] = 1.39

bioluminescence measured on CO/N=C(\C(=O)N[C@@H]1C(=O)N2C(C(=O)[O-])=C(COC(C)=O)CS[C@H]12)c1csc(N)n1.[Na+] [Cefotaxime sodium] = 0.745

bioluminescence measured on CCCN(CCC)S(=O)(=O)c1ccc(C(=O)O)cc1 [Probenecid] = 3.62

bioluminescence measured on CCN(CC)CC(=O)Nc1c(C)cccc1C.Cl [Lidocaine hydrochloride] = 1.49

bioluminescence measured on C=C/C=C/C[C@@H](C)[C@@H](O)[C@H]1C(=O)N[C@@H](CC)C(=O)N(C)CC(=O)N(C)[C@@H](CC(C)C)C(=O)N[C@@H](C(C)C)C(=O)N(C)[C@@H](CC(C)C)C(=O)N[C@@H](C)C(=O)N[C@H](C)C(=O)N(C)[C@@H](CC(C)C)C(=O)N(C)[C@@H](CC(C)C)C(=O)N(C)[C@@H](C(C)C)C(=O)N1C [Voclosporin] = 0.414

bioluminescence measured on COCCCC/C(=N\OCCN)c1ccc(C(F)(F)F)cc1.O=C(O)/C=C\C(=O)O [Fluvoxamine maleate] = 1.22

bioluminescence measured on Cc1ccc(Nc2nccc(N(C)c3ccc4c(C)n(C)nc4c3)n2)cc1S(N)(=O)=O.Cl [Pazopanib HCl] = 0.626

bioluminescence measured on Cc1cn([C@H]2C=C[C@@H](CO)O2)c(=O)[nH]c1=O [Stavudine] = 3.29

bioluminescence measured on Clc1ccc2c(c1)C(N1CCNCC1)=Nc1ccccc1O2 [Amoxapine] = 0.902

bioluminescence measured on NS(=O)(=O)c1cc2c(cc1Cl)N=CNS2(=O)=O [Chlorothiazide] = 0.96

bioluminescence measured on Nc1[nH]c(=O)ncc1F [Fluorocytosine] = 2.51

bioluminescence measured on Cl.CN(C)CC\C=C1\c2ccccc2CCc2ccccc12 [Amitriptyline hydrochloride] = 1.32

Reference source: the supplement of paper PMC10811239
